PROTOCOL_TEXT: Human HepG2 cell viability assay in 384 well format
Assay type: toxicity, cell-based
Design: dose 125 nL, time 70.5 hour; concentration not given beside the values
CONDITION_INFO: HepG2 cells, read-out: Inhibition
Below: a set of entries, each annotated with reported cytotoxicity at 70.5 h.
READOUT_LABEL: cytotoxicity at 70.5 h

{"COMPOUND": "O=C(CCCN1CCCCC1)N1CCC(c2nnc[nH]2)CC1", "READOUT_LABEL": "cytotoxicity at 70.5 h", "RESULT": "-4.84%"}
{"COMPOUND": "CC(C)N(CCCNC(=O)C1CC1)S(C)(=O)=O", "READOUT_LABEL": "cytotoxicity at 70.5 h", "RESULT": "-4.77%"}
{"COMPOUND": "Cc1ccc(OC2(C(=O)O)CCN(C(=O)c3ccsc3)CC2)cn1", "READOUT_LABEL": "cytotoxicity at 70.5 h", "RESULT": "-4.13%"}
{"COMPOUND": "CC(=O)c1ccccc1-c1cc(C(=O)O)cc(S(=O)(=O)NC(C)C)c1", "READOUT_LABEL": "cytotoxicity at 70.5 h", "RESULT": "-14.9%"}
{"COMPOUND": "CC(C)c1nc2c(n1C)CCN(CC(=O)Nc1nncs1)C2", "READOUT_LABEL": "cytotoxicity at 70.5 h", "RESULT": "6.98%"}
{"COMPOUND": "CC(C)N(CC(=O)Nc1cccc(C#N)c1)C1CC1", "READOUT_LABEL": "cytotoxicity at 70.5 h", "RESULT": "-4.01%"}
{"COMPOUND": "CCOC(=O)CSc1nnc([C@@H](N)CC(C)C)o1", "READOUT_LABEL": "cytotoxicity at 70.5 h", "RESULT": "-6.75%"}
{"COMPOUND": "CCC(CC)C(=O)N1CCN(C)c2ncccc2C1", "READOUT_LABEL": "cytotoxicity at 70.5 h", "RESULT": "-2.64%"}
{"COMPOUND": "O=C(Cc1cccs1)N1C[C@@H]2CN(Cc3ccoc3)CCO[C@@H]2C1", "READOUT_LABEL": "cytotoxicity at 70.5 h", "RESULT": "-15.2%"}
{"COMPOUND": "CCC(Sc1ncc(CO)n1C)c1ccccc1 (stereo not drawn)", "READOUT_LABEL": "cytotoxicity at 70.5 h", "RESULT": "-10%"}
{"COMPOUND": "CCNC(=O)C1(CC2CC(c3ccccc3OC)=NO2)CCOCC1 (stereo not drawn)", "READOUT_LABEL": "cytotoxicity at 70.5 h", "RESULT": "-0.996%"}
{"COMPOUND": "CC(C)N(C)C(=O)CN1CCCC(c2ccc(C(=O)O)cc2)C1 (stereo not drawn)", "READOUT_LABEL": "cytotoxicity at 70.5 h", "RESULT": "32.3%"}
{"COMPOUND": "CC(=O)N[C@H]1CCO[C@@H](c2cccc(NC(=O)Cc3ccccc3)c2)C1", "READOUT_LABEL": "cytotoxicity at 70.5 h", "RESULT": "10.3%"}
{"COMPOUND": "CNc1ccc(CC2CCCN(C(=O)c3cnco3)C2)nn1 (stereo not drawn)", "READOUT_LABEL": "cytotoxicity at 70.5 h", "RESULT": "-9.21%"}
{"COMPOUND": "O=C(NCCc1ccccc1)NCC(O)c1cccs1 (stereo not drawn)", "READOUT_LABEL": "cytotoxicity at 70.5 h", "RESULT": "-14%"}
{"COMPOUND": "Cn1cc(C(=O)N2CC[C@@H]3[C@@H]2CCN3Cc2cccc(C#N)c2)cn1", "READOUT_LABEL": "cytotoxicity at 70.5 h", "RESULT": "0.809%"}
{"COMPOUND": "CCc1cc(NCC(O)CN2CCCCC2)n2ncnc2n1 (stereo not drawn)", "READOUT_LABEL": "cytotoxicity at 70.5 h", "RESULT": "1.39%"}
{"COMPOUND": "CC(=O)N1CCCN(C(=O)c2ccn(-c3cccc(Cl)c3)n2)CC1", "READOUT_LABEL": "cytotoxicity at 70.5 h", "RESULT": "-26.5%"}
